This collection of values is drawn from ChEMBL document CHEMBL1201862.

Tested on: Malme-3M
assay-method-text: NCI tumour cell line growth inhibition, 48 h
Calls of active or inactive are those of the source. No stated cut-off is given here; in the data, active = GI50 up to about 1.1 µM and inactive = higher.
Would you mind answering with one of these outcomes? active, inactive

CC(=O)Nc1ccc(C(=O)NN2C(=O)C(Cl)C2c2cc(Br)cc(Br)c2O)cc1 (centres undefined) ... inactive
COc1cccc2nc3ccccc3nc12 ... inactive
C/C(=N\c1cc(Cl)cc(Cl)c1)c1ccncc1 ... inactive

How was CCOc1ccc(NC(=O)/C=C/c2ccco2)cc1 classified in this test? inactive

* * *

Test system: SK-MEL-28
assay-method-text: NCI tumour cell line growth inhibition, 48 h
The source made the active and inactive calls. Rule as the data show it: active = GI50 up to about 1.1 µM and inactive = higher.
measurement-type: GI50

Some molecules with recorded GI50:
CCOP(=O)(OCC)/C(C#N)=C/c1cccn1C ... > 100 µM (inactive)
O=C1ON=C2C3CC4CC12CC1(C3)C(=O)ON=C41 ... > 100 µM (inactive)
CC1=C(CCC(C)CO)O[C@H]2C[C@H]3[C@@H]4CC[C@H]5C[C@@H](O)CC[C@]5(C)[C@H]4CC(=O)[C@]3(C)[C@@H]12 (stereo not given in full) ... 22.1 µM (inactive)
O=c1oc2c3ccc4ccccc4c3n(CCN3CCCCC3)c2c2ccccc12 ... > 71.6 µM (inactive)

Request the reported GI50 associated with COC(=O)NN1C(C)=C(C(=O)OC)C2(C#N)C(C(=O)OC)=C(C)N(NC(=O)OC)C12N (stereo not given) > 100 µM (inactive)

Ok, now C#CC[C@]12CC(=O)CC[C@H]1CC(=O)C2 > 100 µM (inactive)

Ok, now Cc1nc(O)nc(N/N=C/c2ccc(Cl)cc2)c1C(=O)NC(C)(CO)CO > 100 µM (inactive)

Ok, now COc1cc(OC)c2c(c1)C(=O)C(CC1(C)OCCCO1)=CC2=O 11.6 µM (inactive)

Ok, now COc1ccc(/C=C2\CCC(CCN3CCOCC3)C2=O)cc1 (stereo not given) > 100 µM (inactive)

Ok, now CCOC(=O)c1nc2cc(N3CCOCC3)c(F)cc2[nH]c1=O > 100 µM (inactive)

* * *

Test system: RPMI-8226
assay-method-text: NCI tumour cell line growth inhibition, 48 h
Calls of active or inactive are those of the source. Cut-off read from the data, not from the text of the source: active = GI50 up to about 1.1 µM and inactive = higher.
Would you mind answering with one of these outcomes? 1 (active), -1 (inactive)

A selection of reference data follows.
CCOC(=O)C1(Br)C(c2ccccc2)NC(=O)NC1(C)Br (configuration not stated) ... -1
NC(Cc1ccc(CP(=O)(O)O)cc1)C(=O)O (configuration not stated) ... -1
COc1cccc2nc3ccccc3nc12 ... -1
Cc1ccc(S(=O)OC2c3ccccc3Cc3ccccc32)cc1 (configuration not stated) ... -1
N/C(=N\Nc1cccc(Cl)c1)c1cccnc1 ... -1

How was C/C(=C1/N=C(c2ccccc2)OC1=O)c1ccccc1 classified in this test? -1

Ok, now Clc1ccc(SCCSCCCCCCCCCCSCCSc2ccc(Cl)cc2)cc1 -1

* * *

System: CAKI-1
assay-method-text: NCI tumour cell line growth inhibition, 48 h
Calls of active or inactive are those of the source. No stated cut-off is given here; in the data, active = GI50 up to about 1.1 µM and inactive = higher.
The following compounds are listed with their measured GI50 values.

Some compounds with recorded GI50:
O=c1[nH]cc(COCC(F)(F)C(F)(F)C(F)(F)C(F)F)c(=O)[nH]1 ... > 100 µM (inactive)
CCCCCCCC(=O)OC[n+]1cccc(-c2c(COC(=O)NC(C)C)c(COC(=O)NC(C)C)c3n2CCC3)c1 ... 18.9 µM (inactive)
Cc1cc(S(=O)(=O)Nc2nnc3c(Cl)cc(C(F)(F)F)cn23)c(S)cc1Cl ... > 89.3 µM (inactive)
Ic1cc2c(cc1C1SCCCS1)OCO2 ... > 100 µM (inactive)
NC(Cc1ccc(CP(=O)(O)O)cc1)C(=O)O (stereo unspecified) ... 11.5 µM (inactive)

Now for another entry.
Request the reported GI50 associated with COc1cc2c(cc1OC)C(Cl)C(c1ccc(Cl)cc1)=C2Cl (stereo unspecified) 17.3 µM (inactive)

* * *

Test system: UACC-257
assay-method-text: NCI tumour cell line growth inhibition, 48 h
Activity calls are given as the source filed them. No stated cut-off is given here; in the data, active = GI50 up to about 1.1 µM and inactive = higher.
Would you mind answering with one of these outcomes? 1 = active, 0 = inactive

A selection of reference data follows.
O=C1CCCCc2cccc(O)c21 ... 0
COc1ccc(O)c(/C=N/CCC/N=C/c2cc(OC)ccc2O)c1 ... 0
OCC1OC(c2nc(C3=NCCCN3)cs2)C(O)C1O (stereo unspecified) ... 0
COC(=O)Cn1c(=O)oc2nc(-c3ccccc3)cc(C(F)(F)F)c21 ... 0
Clc1ccc(C(c2ccc(Cl)cc2)N2CCNCC2)cc1 ... 0

How was Cc1nc(O)nc(N/N=C/c2ccc(Cl)cc2)c1C(=O)NC(C)(CO)CO classified in this test? 0

Ok, now C[C@@H]1[C@@H](C)C(c2ccccc2)O[Si]1(C(C)(C)C)C(C)(C)C (stereo partly specified) 0

Ok, now CC1OC(O)CC(N(C)C)C1O.CC1OC(O)CCC1O.CCC1CC(O)c2c(O)c3c(c(O)c2C1O)C(=O)c1cccc(O)c1C3=O (stereo unspecified) 1

Ok, now O=C1/C(=C/c2n[nH]cc2-c2ccc(Cl)cc2)C(=O)N(c2ccccc2)C1c1ccccc1 (stereo unspecified) 0

Ok, now CCOc1c(Cc2ccccc2)c(=O)n2c3ccccc3n3c(=O)n(C)c(=O)c1c23 0

* * *

Test system: MDA-N
assay-method-text: NCI tumour cell line growth inhibition, 48 h
Active and inactive are the calls of the source. Rule as the data show it: active = GI50 up to about 1.1 µM and inactive = higher.
Would you mind answering with one of these outcomes? class 1 = active, class 0 = inactive

O=c1cc(CNC2CCCC2)[nH]c(=O)[nH]1 ... class 0
CSc1nc(SC)c2c(C)cn(COCCOC(=O)c3ccccc3)c2n1 ... class 0
CC1=C(C(=O)Nc2ccccc2)C2(CCCCC2)C(C#N)=C(SCC(=O)Nc2ccc(Br)cc2)N1 ... class 0
CCCCCCCCCCCCOCCCCCCCCC/C=C/c1ccc2c(c1)OCCOCCOCCOCCO2 ... class 0

How was O=C1CC2(CCNCC2)C(=O)N1N1CCCCC1 classified in this test? class 0

* * *

The following compounds are listed with their measured GI50 values.
Tested on: COLO 205
assay-method-text: NCI tumour cell line growth inhibition, 48 h
Calls of active or inactive are those of the source. No stated cut-off is given here; in the data, active = GI50 up to about 1.1 µM and inactive = higher.

Some compounds with recorded GI50:
Cn1ncc(NCCn2cnc3c2c(=O)n(C)c(=O)n3C)c(Cl)c1=O ... > 100 µM (inactive)
Cc1c(C)c2c(c(N)c1C#N)C(=O)N(NC(=S)Nc1ccccc1)C2=O ... 79.4 µM (inactive)
COC(=O)Cn1c(=O)oc2nc(-c3ccccc3)cc(C(F)(F)F)c21 ... > 100 µM (inactive)

Request the reported GI50 associated with Cc1ccc(Nc2nc(NNC(=O)Cc3ccccc3)nc(NNC(=O)c3ccncc3)n2)cc1 > 10 µM (inactive)

Ok, now COc1ccc(/C=C(\C#N)c2nc(N)nc(N3N=C(C)CC3(C)C)n2)c(O)c1 17 µM (inactive)

Ok, now CC(Cc1ccc(Cl)cc1Cl)NO (stereo unspecified) > 100 µM (inactive)

* * *

Test system: SNB-75
assay-method-text: NCI tumour cell line growth inhibition, 48 h
Active and inactive are the calls of the source. No stated cut-off is given here; in the data, active = GI50 up to about 1.1 µM and inactive = higher.
Would you mind answering with one of these outcomes? active, inactive

O=C1CCCCc2cccc(O)c21 ... inactive
CCCCCCCCCCOC1C(C(C)OCCCN(C)C)OC2OC3(CCCCC3)OC21 (stereo not given) ... inactive
CC1CC2=C(C1)C(C1(C)C(=O)CC3C(C1=O)C3(C)C)C(C)C2=O (stereo not given) ... inactive
Cc1ccc(CCCCCOc2ccc(C3=NCCO3)cc2)s1 ... inactive
O=C1C(Cl)N(c2cccc([N+](=O)[O-])c2)C1c1c[nH]c2ccccc12 (stereo not given) ... inactive
O=c1oc2c3ccc4ccccc4c3n(CCN3CCCCC3)c2c2ccccc12 ... inactive
C/C1=C/C(=O)O[C@@H]2C[C@@H](CC[C@H](C)/C=C\C=C\CC1)O[C@@](O)([C@@H]1CSC(=O)N1)C2 ... active
C=C(C(=C)P(=S)(c1ccccc1)c1ccccc1)P(=S)(c1ccccc1)c1ccccc1 ... inactive

How was Cn1c(=O)c2nc(-c3ccc(Cl)cc3)oc2n(C)c1=O classified in this test? inactive

Ok, now C=C(COC(=O)C(C)C)[C@H]1Oc2ccc(C(C)=O)cc2[C@@H]1OC(=O)C(C)C inactive

* * *

System: UACC-62
assay-method-text: NCI tumour cell line growth inhibition, 48 h
Activity calls are given as the source filed them. Rule as the data show it: active = GI50 up to about 1.1 µM and inactive = higher.
Would you mind answering with one of these outcomes? label 1 = active, label 0 = inactive

O=C(O)CO[C@@]12C#C/C=C\C#C[C@@H]3N(C(=O)Oc4ccccc4)c4ccccc4[C@]14O[C@@]34CCC2 ... label 0

How was CN(C)c1nc(N(C)c2ccccc2)[s+]s1 classified in this test? label 0

Ok, now O=C1/C(=C/c2cccs2)NC(=S)N1CN1CCCC(CO)C1 (stereo unspecified) label 0

Ok, now Cc1c2cnccc2c(C)c2c1c1ccccc1n2CCCN label 1

Ok, now O=P1(Cc2ccccc2)N(Cc2ccccc2)[C@@H]2CCCC[C@H]2N1Cc1ccccc1 label 0

Ok, now CC(C)(C)OC(=O)NCCC(N)=S label 0

Ok, now O=C1NC2(CCNCC2)Oc2ccccc21 label 0

Ok, now CCOC(=O)[C@@H]1ON2O[C@@H](OC3CCCCC3c3ccccc3)C[C@H]3OC(=O)[C@@H]1C32 (stereo partly specified) label 0

Ok, now C=C(COC(=O)C(C)C)[C@H]1Oc2ccc(C(C)=O)cc2[C@@H]1OC(=O)C(C)C label 0

Ok, now C[P+]1(c2ccccc2)CCCCC1 label 0

Ok, now O=C1/C(=C/c2ccccc2)CN(C(=O)Oc2ccc(Cl)cc2)C/C1=C\c1ccccc1 label 0
